Hey, just so you know, these numbers are from patent US20070265256A1.

# Subject of test: mPDE10A7 (Mus musculus)
# Sequence (Q8CA95 446-763 limits assumed): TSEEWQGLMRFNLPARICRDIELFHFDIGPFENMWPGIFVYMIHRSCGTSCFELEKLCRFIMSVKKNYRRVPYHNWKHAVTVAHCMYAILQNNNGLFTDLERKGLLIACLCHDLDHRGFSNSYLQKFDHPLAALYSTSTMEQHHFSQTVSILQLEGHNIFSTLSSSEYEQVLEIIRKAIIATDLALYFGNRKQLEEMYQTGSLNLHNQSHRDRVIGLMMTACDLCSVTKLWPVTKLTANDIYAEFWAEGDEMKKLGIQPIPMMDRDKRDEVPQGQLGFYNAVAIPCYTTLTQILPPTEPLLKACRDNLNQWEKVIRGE
pIC50: −log10 of the molar value.
Recorded endpoint: pIC50

Known pIC50 results, listed for orientation:
| Smiles str | pIC50 |
| --- | --- |
| COc1cc2nncc(-c3cccc(-c4cnn(C)c4)c3)c2cc1OC | 7.10 |
| COc1cc2nncc(-n3ccc4cc(N5CCOCC5)ccc43)c2cc1OC | 6.68 |
| COc1cc2nncc(-c3ccc(N4CCn5c(nnc5C(F)(F)F)C4)nc3)c2cc1OC | 7.16 |

I = COc1cc2nncc(-c3ccc(Nc4ccccc4)nc3)c2cc1OC
II = COc1cc2nncc(-c3cccc(N(C)C)c3)c2cc1OC
Task: Hi, I'm comparing I with II and wondering which one has the bigger number for pIC50. Any idea? The response must carry the label of the picked entry.
Output: II

P = COc1cc2nncc(-c3ccc(NCc4cccc(OC(F)(F)F)c4)nc3)c2cc1OC
Q = COc1cc2nncc(-c3cccc(NC(C)=O)c3)c2cc1OC
Task: Hi, I'm comparing P with Q and wondering which one has the bigger number for pIC50. Any idea? The response must carry the label of the picked entry.
Output: Q
